assay: Toxicity test, oral administration to fasted mice, observed for two weeks, LD50 by the Richfield-Wilcockson method; format: in vivo; conditions: mouse, in vivo, mice, Richfield-Wilcockson method
reported.endpoint: LD50 at 336 h

# LD50 at 336 h lookup, item COC(=O)C12C(O)C(C(=O)Cc3ccccn3)=NN1C(c1ccccc1)C=CC2c1ccccc1 (stereo not shown) [compound No.1]
> 100 mg/kg
